System Name: Cytochrome P450 3A4 (Homo sapiens, UniProt P08684)
Sequence (P08684 whole entry): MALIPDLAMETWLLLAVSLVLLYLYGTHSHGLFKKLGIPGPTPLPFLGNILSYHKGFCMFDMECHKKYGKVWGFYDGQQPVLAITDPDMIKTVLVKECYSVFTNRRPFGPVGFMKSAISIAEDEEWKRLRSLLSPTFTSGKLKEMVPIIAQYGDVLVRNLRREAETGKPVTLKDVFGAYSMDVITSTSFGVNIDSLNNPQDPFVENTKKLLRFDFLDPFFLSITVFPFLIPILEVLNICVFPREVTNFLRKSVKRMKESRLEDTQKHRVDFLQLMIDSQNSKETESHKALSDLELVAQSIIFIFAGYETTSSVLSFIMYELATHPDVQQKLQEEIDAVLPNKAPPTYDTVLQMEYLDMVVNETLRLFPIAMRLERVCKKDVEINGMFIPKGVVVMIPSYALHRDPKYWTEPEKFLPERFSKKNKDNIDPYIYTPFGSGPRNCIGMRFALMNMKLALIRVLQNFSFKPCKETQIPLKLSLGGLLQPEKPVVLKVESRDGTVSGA
Protocol Description: Inhibition of CYP3A4 (unknown origin) using benzyloxyresorufin as substrate
Type: ADME
Can you tell me pIC50 for the items I'm about to list?
One number for each entry, as −log10 of the molar value.

Consider the worked cases shown below.
>>> print(df.to_string())
                               smiles_entry                               system_name  experimental_result
0  Fc1cc(OC(F)(F)C(F)F)cc([C@@](Cc2ccccc2)(Nc2nc3ccccc3[nH]2)c2ccc(Cl)cn2)c1  Cytochrome P450 3A4 (Homo sapiens, UniProt P08684)                 4.89
1  Fc1cc(OC(F)(F)C(F)F)cc([C@@](Cc2ccccc2)(Nc2nc3cc(F)ccc3[nH]2)c2ccc(Cl)cn2)c1  Cytochrome P450 3A4 (Homo sapiens, UniProt P08684)                 4.40
2  Fc1cc(OC(F)(F)C(F)F)cc([C@@](Cc2ccccc2)(Nc2nc3c(F)cc(F)cc3[nH]2)c2ccc(Cl)cn2)c1  Cytochrome P450 3A4 (Homo sapiens, UniProt P08684)                 4.72
3  Fc1cc(OC(F)(F)C(F)F)cc([C@@](Cc2ccccc2)(Nc2nc(C(F)(F)F)cs2)c2ccc(Cl)cn2)c1  Cytochrome P450 3A4 (Homo sapiens, UniProt P08684)                 4.40

Then this molecule:
Ask: Assign pIC50 to the following record: O=C(NC1CCCC1)N[C@@](Cc1ccccc1)(c1cc(F)cc(OC(F)(F)C(F)F)c1)c1ccc(Cl)cn1
Reply: 5.44

* * *

Protocol Description: Plasma concentration in hCETP/apo B-100 transgenic mouse at 30 mg/kg, po after 8 hrs
Format: ADME, organism-based
Set-up: dose 30 mg/kg, route oral
Metric Name: concentration at 8 h (nM)
One number for each entry, in nM.

Ask: Look up concentration at 8 h of Fc1cc(C(F)(F)F)cc([C@@](Cc2ccccc2)(Nc2nc3c(s2)CCC3)c2ccc(Cl)cn2)c1 and report it.
Reply: 142

* * *

Kindly state AUC for each of the entries shown.
Protocol Description: AUC in hCETP/apo B-100 transgenic mouse at 30 mg/kg, po
Format: ADME, organism-based
Parameters: dose 30 mg/kg, route oral
Condition Label: plasma
Give bare numbers, in µM·h.

In [3]: df
Out[3]:
                               smiles_entry  unit_descriptor  experimental_result
0  O=C(NC1CCCC1)N[C@@](Cc1ccccc1)(c1cc(F)cc(C(F)(F)F)c1)c1ccc(Cl)cn1             µM·h                 5.71

# context switch: different compound, same AUC
Ask: Query AUC for Fc1cc(C(F)(F)F)cc([C@@](Cc2ccccc2)(Nc2nc3c(s2)CCC3)c2ccc(Cl)cn2)c1
Reply: 8.18

* * *

Can you tell me concentration at 4 h for the items I'm about to list?
Protocol Description: Plasma concentration in hCETP/apo B-100 transgenic mouse at 30 mg/kg, po after 4 hrs
Assay type: ADME, organism-based
Design: dose 30 mg/kg, route oral
Give bare numbers, in nM.

In [3]: df
Out[3]:
                               smiles_entry           metric_name  experimental_result
0  Fc1cc(C(F)(F)F)cc([C@@](Cc2ccccc2)(Nc2nc3c(s2)CCC3)c2ccc(Cl)cn2)c1  concentration at 4 h                 1240

Read the next record carefully.
Ask: Check the records and state concentration at 4 h for O=C(NC1CCCC1)N[C@@](Cc1ccccc1)(c1cc(F)cc(C(F)(F)F)c1)c1ccc(Cl)cn1
Reply: 1010

* * *

Protocol Description: Plasma concentration in hCETP/apo B-100 transgenic mouse at 30 mg/kg, po after 2 hrs
Assay type: ADME, organism-based
Design: dose 30 mg/kg, route oral
Metric Name: concentration at 2 h (nM)
Give bare numbers, in nM.

>>> df
                               smiles_entry  experimental_result
0  O=C(NC1CCCC1)N[C@@](Cc1ccccc1)(c1cc(F)cc(C(F)(F)F)c1)c1ccc(Cl)cn1                 1750

--- query ---
Ask: Look up and state reported concentration at 2 h for Fc1cc(C(F)(F)F)cc([C@@](Cc2ccccc2)(Nc2nc3c(s2)CCC3)c2ccc(Cl)cn2)c1
Reply: 2530

* * *

Please provide measured pIC50 for the entries that follow.
System Name: Cytochrome P450 1A2 (Homo sapiens, UniProt P05177)
Sequence (P05177 whole entry): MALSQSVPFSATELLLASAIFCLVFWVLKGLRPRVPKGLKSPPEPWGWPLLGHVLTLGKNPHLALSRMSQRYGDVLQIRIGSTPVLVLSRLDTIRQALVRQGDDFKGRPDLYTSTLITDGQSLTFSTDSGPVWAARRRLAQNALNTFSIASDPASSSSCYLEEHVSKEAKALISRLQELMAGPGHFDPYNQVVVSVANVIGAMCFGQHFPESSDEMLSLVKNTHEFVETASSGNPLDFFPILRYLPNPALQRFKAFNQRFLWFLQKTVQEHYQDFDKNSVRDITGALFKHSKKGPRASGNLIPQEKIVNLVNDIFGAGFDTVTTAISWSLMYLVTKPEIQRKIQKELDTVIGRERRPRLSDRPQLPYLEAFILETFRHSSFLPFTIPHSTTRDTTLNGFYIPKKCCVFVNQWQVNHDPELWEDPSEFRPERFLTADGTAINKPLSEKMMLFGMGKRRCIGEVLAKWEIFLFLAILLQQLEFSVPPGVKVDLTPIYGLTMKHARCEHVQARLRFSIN
Answers are plain numbers, as −log10 of the molar value.

Study these solved cases before continuing.
In [3]: df
Out[3]:
                               smiles_entry                               system_name  metric_name  experimental_result
0  Fc1cc(OC(F)(F)C(F)F)cc([C@@](Cc2ccccc2)(Nc2nc(C(F)(F)F)cs2)c2ccc(Cl)cn2)c1  Cytochrome P450 1A2 (Homo sapiens, UniProt P05177)        pIC50                 4.40
1  O=C(NC1CCCC1)N[C@@](Cc1ccccc1)(c1cc(F)cc(OC(F)(F)C(F)F)c1)c1ccc(Cl)cn1  Cytochrome P450 1A2 (Homo sapiens, UniProt P05177)        pIC50                 4.40

Ask: Report its pIC50 with Cytochrome P450 1A2 (Homo sapiens, UniProt P05177) as the test system: Fc1cc(OC(F)(F)C(F)F)cc([C@@](Cc2ccccc2)(Nc2nc3c(F)cc(F)cc3[nH]2)c2ccc(Cl)cn2)c1
Reply: 4.40

* * *

System Name: UniProtKB P11597
Protocol Description: Inhibition of CETP in human whole plasma using [3H]-CE/HDL after 10 mins
Metric Name: pIC50
Answers are plain numbers, as −log10 of the molar value.

Answered cases to consult:
>>> df
                                   molecule  metric_name  experimental_result
0  Fc1cc(C(F)(F)F)cc(C(Cc2ccccc2)(Nc2nc3ccccc3[nH]2)c2ccc(Cl)cn2)c1 (stereo unspecified)        pIC50                 4.71
1  Fc1cc(OC(F)(F)C(F)F)cc([C@@](Cc2ccccc2)(Nc2nc(C(F)(F)F)cs2)c2ccc(Cl)cn2)c1        pIC50                 4.83
2  Fc1cc(OC(F)(F)C(F)F)cc([C@@](Cc2ccccc2)(Nc2nc3ccccc3[nH]2)c2ccc(Cl)cn2)c1        pIC50                 4.82

For each listed entry, give its pIC50.
1. Fc1cc(OC(F)(F)C(F)F)cc([C@@](Cc2ccccc2)(Nc2nc3c(s2)CCCC3)c2ccc(Cl)cn2)c1
2. Fc1cc(OC(F)(F)C(F)F)cc([C@@](Cc2ccccc2)(Nc2nc(C(F)(F)F)c(Br)s2)c2ccc(Cl)cn2)c1
3. Fc1cc(OC(F)(F)C(F)F)cc([C@@](Cc2ccccc2)(Nc2nc3cc(F)ccc3[nH]2)c2ccc(Cl)cn2)c1

Reply:
1. 5.38
2. 5.19
3. 5.02

* * *

System Name: Cholesteryl ester transfer protein (Homo sapiens, UniProt P11597)
Sequence (P11597 whole entry): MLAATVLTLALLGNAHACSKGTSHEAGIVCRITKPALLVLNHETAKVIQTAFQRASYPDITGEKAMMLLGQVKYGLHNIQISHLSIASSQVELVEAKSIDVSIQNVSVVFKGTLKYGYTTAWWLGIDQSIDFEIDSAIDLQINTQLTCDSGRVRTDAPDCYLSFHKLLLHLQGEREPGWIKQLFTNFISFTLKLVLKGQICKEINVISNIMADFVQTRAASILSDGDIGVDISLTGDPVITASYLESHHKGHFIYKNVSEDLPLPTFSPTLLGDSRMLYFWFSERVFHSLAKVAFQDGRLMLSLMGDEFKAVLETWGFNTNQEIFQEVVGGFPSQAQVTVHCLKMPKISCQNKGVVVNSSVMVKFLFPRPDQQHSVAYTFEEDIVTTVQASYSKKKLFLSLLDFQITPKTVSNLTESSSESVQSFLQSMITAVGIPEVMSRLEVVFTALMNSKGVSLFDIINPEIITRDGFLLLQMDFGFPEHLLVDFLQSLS
Protocol Description: Inhibition of human recombinant CETP using [3H]-CE/HDL by scintillation proximity assay
Answer each item with its documented IC50.
# do not omit the unit; it follows the number

Reference set (3 entries):
                                   compound  experimental_result
0  Cc1nc(N[C@](Cc2ccccc2)(c2cc(F)cc(C(F)(F)F)c2)c2ccc(Cl)cn2)sc1C                40 nM
1  Fc1cc(C(F)(F)F)cc(C(Cc2ccccc2)(Nc2nc(C(F)(F)F)cs2)c2ccc(Cl)cn2)c1 (stereo not drawn)              1200 nM
2  Fc1cc(OC(F)(F)C(F)F)cc([C@@](Cc2ccccc2)(Nc2nc3c(s2)CCCC3)c2ccc(Cl)cn2)c1                20 nM

Below are some compounds; for each one, tell me its IC50.
1. Cc1nc(N[C@@](Cc2ccccc2)(c2cc(F)cc(C(F)(F)F)c2)c2ccc(Cl)cn2)sc1C
2. Fc1cc(C(F)(F)F)cc(C(Cc2ccccc2)(Nc2nc3ccccc3[nH]2)c2ccc(Cl)cn2)c1 (stereo not drawn)
3. Fc1cc(C(F)(F)F)cc(C(Cc2ccccc2)(Nc2nc3ccccc3o2)c2ccc(Cl)cn2)c1 (stereo not drawn)
4. Cc1nc(NC(Cc2ccccc2)(c2cc(F)cc(C(F)(F)F)c2)c2ccc(Cl)cn2)sc1C (racemic)
5. Fc1cc(OC(F)(F)C(F)F)cc([C@@](Cc2ccccc2)(Nc2nc(C(F)(F)F)cs2)c2ccc(Cl)cn2)c1

Reply:
1: 12200 nM; 2: 200 nM; 3: 2000 nM; 4: 400 nM; 5: 220 nM
